The following binders are shown together with reported koff values.
- system-tested: T1, human Ig1,2 TrkA (recombinant D4-D5 domain of human TrkA receptor) (human, UniProt P04629 191-392)
- T1 construct: also called hTrkA Ig1,2; TrkA Ig1,2
- T1 chain: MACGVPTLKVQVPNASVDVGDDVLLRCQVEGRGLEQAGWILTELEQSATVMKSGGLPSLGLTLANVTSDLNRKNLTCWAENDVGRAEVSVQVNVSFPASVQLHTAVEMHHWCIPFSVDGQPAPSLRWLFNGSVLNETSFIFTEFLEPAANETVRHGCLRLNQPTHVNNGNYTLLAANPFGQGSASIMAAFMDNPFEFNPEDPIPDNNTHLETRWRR
- assay-protocol: SPR (Biacore X-100); scFv immobilised on CM5 chip, human Ig1,2 TrkA injected

Recorded results for 2 binders are shown here.
- binder: "anti-TrkA scFv CRB0088 (scFv, From hSPLINT_09 selection) scFv: QPVLTQSPPASASLGASVKLTCTLSSGHSSYAIAWHQQQPEKGPRYLMKVNSDGSHNKGDGIPDRFSGSRSGAERYLTISSLHSEDEADYYCQTWGAGGVVFGGGTKLTVLSGGSTSGSGKPGSGEGSSGTEVQLLESGGGLVQPGGSLRLSCAASGFTFSDHYMDWVRQAPGKGLEWVGRIRNKANSYTTEYAASVKGRFTISRDDSKKTLYLQMTSLKTDDTALYYCARDLGASDAFDLWGQGTMVTVSS"
  koff: "3.2e-06 s⁻¹"
- binder: "anti-TrkA scFv CRB0089 (scFv, From hSPLINT_09 selection) scFv: QTVVTQEPSVSGAPGQRVTISCTGSSSIIGAGYEVHWYQHLPGTAPKLLIYDSINRPSGVPDRFSGSKSGTSASLAITGLQAEDEADYYCQSSAIFGGGTKLTVLSGGSTSGSGKPGSGEGSSGTQVQLQESGPGLVKPSQTLSLTCAISGDSVSSNSAAWNWIRQSPSRGLEWLGRTFHRSRWYNEYPVSVRSRITINPDTSNNQFTLQLNSVTPDDTAVYYCARAPVAGLTFDIWGQGTMVTVSS"
  koff: "7.76e-05 s⁻¹"

Now, please, on to the next binder.
### Prompt Using the record for anti-TrkA scFv CRB0022 (scFv, From mSPLINT selection) scFv: DIVLTQSPALMSASPGEKVTMTCSASSSVSYMYWYQQKPRSSPKPWIYLTSNLASGVPARFSGSGSGTSYSLTISSMEAEDAATYYCQQWSSNPYTFGGRTRLEIKPSGGSTSGSGKPGSGEDSSGAQVQLQQSGAELVKPGASVELSCTASGFNIKDTYMHWVKQRPEQGLEWIGGIDPANGNTIYVPKFQGKATITADTSSNTAYLQLSSLTSEDTAVYYCARGGYDFDYAMDYWGQGTSVTVSS , report its koff.
### Response 2.94e-05 s⁻¹
